System: UO-31 renal
experimental-protocol: NCI tumour cell line growth inhibition, 48 h
metric: GI50

Reference set, count: 3
compound: N#Cc1cc2c(cc1Cl)SC(=Nc1ccccc1)N(S(=O)(=O)c1ccc(Br)s1)S2(=O)=O
assayed-target: UO-31 renal
GI50: 15100 nM

compound: Cn1cccc1-c1cc(-c2ccccc2)nc(N)c1C#N
assayed-target: UO-31 renal
GI50: > 100000 nM

compound: C=C(CN1CCN(c2ccc(F)c(Cl)c2)CC1)c1ccc(C(=O)Nc2ccccc2N)cc1
assayed-target: UO-31 renal
GI50: 2280 nM

We now examine a further compound.
Problem: Report GI50 for C=Cc1cc(OC)c2c(c1)c(=O)oc1c2cc(OC)c2c(O)ccc(C3OC(C(C)O)C(O)C3O)c21 (centres undefined) please.
Result: 2.62 nM

* * *

Tested on: UO-31 renal
experimental-protocol: NCI tumour cell line growth inhibition, 48 h
metric: TGI

compound: Cn1cccc1-c1cc(-c2ccccc2)nc(N)c1C#N
TGI: > 100 µM
--
compound: CC(=O)c1c(O)cc(O)c(-c2c(C)cc(O)c3c2C(=O)c2cccc(O)c2C3=O)c1O
TGI: 27.9 µM
--
compound: CNc1nc(-c2ccc3c(N)n[nH]c3c2)cc(N2C[C@@H](C(=O)NC3CCCCC3)CC[C@H]2C)n1
TGI: 13.7 µM

Problem: TGI of `Cc1cn2cc(-c3ccc4c(c3)CC(=O)N4)nc2s1` on UO-31 renal?
Result: > 100 µM

Problem: What TGI appears in the records for this compound with UO-31 renal? CCC(C)N1CN(c2ccccc2)C2(CCN(CCCC3(c4ccc(F)cc4)OCCO3)CC2)C1=O (stereo unspecified)
Result: 10.7 µM

Problem: Missing value: TGI, UO-31 renal, entry `COc1ccc(/C=C(/c2ccc(OC)cc2)c2c(Cl)cc(Cl)c(/C(=C\c3ccc(OC)cc3)c3ccc(OC)cc3)c2N=Nc2ccccc2)cc1` . Fill in?
Result: > 100 µM

Problem: Observed TGI on UO-31 renal for CCOC(=O)C1CCCN1C(=O)c1ccccc1Cl (stereo unspecified) , please.
Result: > 100 µM

Problem: Hi! What's the reported TGI for `COc1cc(-c2nc(SC)nc3c2CCc2ccccc2-3)cc(OC)c1OC` on UO-31 renal?
Result: > 100 µM

Problem: Could you share what TGI was measured for `C=C(Cl)CN1c2ccccc2C=Cc2ccccc21` , tested on UO-31 renal?
Result: 82 µM

Problem: Lab request: please report TGI under test system UO-31 renal for C[C@H]1CCC2C(OC(=O)[C@@H]2CN(C)C)[C@]2(C)C(=O)C=CC12O (stereo partly specified)
Result: 30.8 µM

Problem: Lookup: TGI / UO-31 renal / `O=C1Nc2ccccc2SC1=C(C(=O)c1ccccc1)C(=O)c1ccccc1`
Result: > 100 µM

Problem: Entry `N#Cc1cc2c(cc1Cl)SC(=Nc1ccccc1)N(S(=O)(=O)c1ccc(Br)s1)S2(=O)=O` , system UO-31 renal: what TGI was measured?
Result: 36.4 µM

Problem: Request - read-out TGI | tested on UO-31 renal | compound `CN(C)Cc1cc(C(C)(C)C)cc(CN(C)C)c1O`
Result: 51.6 µM

Problem: Item `NC1=Nc2ccccc2Sc2ccccc21` with UO-31 renal - TGI?
Result: > 100 µM

Problem: Checklist item: TGI tested on UO-31 renal, entry CCOC(=O)CC(C)C1(C=O)CCCCC1=O (stereo unspecified) , value?
Result: > 100 µM

Problem: # query: TGI | item `O=C1C(=Cc2ccc(F)cc2)C(=O)c2ccccc21` | system: UO-31 renal
Result: > 100 µM

Problem: So what TGI did `CSc1nc2ccc(C)cc2cc1/C=C1/C=C(c2ccccc2)NC1=O` get with UO-31 renal?
Result: 12.4 µM

Problem: What is its TGI for UO-31 renal? Entry: `Cc1c2ccccc2c(C)n2c1nc1cc(Cl)c(Cl)cc12`
Result: > 100 µM

Problem: Record `COc1ccc(/C=C2/CSC/C(=C/c3ccc(OC)c(OC)c3)C2=O)cc1OC` : what is its TGI with UO-31 renal?
Result: 10.6 µM

Problem: Entry COc1ccc2c(c1)C=CC1C2CC[C@]2(C)C(NC(=O)/C=C/c3ccc(O)c(O)c3)CCC12 (stereo partly specified) , system UO-31 renal: what TGI was measured?
Result: 27.3 µM

Problem: # query: TGI | item CC1=C(SCCC(=O)OC(C[Se]C2=C(C)C(=O)c3ccccc3C2=O)C(=O)NC(C)(C)C)C(=O)c2ccccc2C1=O (stereo unspecified) | system: UO-31 renal
Result: 2.15 µM

The values you see were collected from PubChem BioAssay (NCI).
